molecular target: Short transient receptor potential channel 4 (Mus musculus) (UniProt Q9QUQ5); assay: inhibitors of mouse TRPC4 channel, confirmation, cell-based, second round, Fluo4, HEK293 TRPC4beta/mu-opioid, 1 µM (AID 2637); conditions: Fluo4 calcium flux, DAMGO, at 1 µM
Sequence (Q9QUQ5 whole entry, looked up): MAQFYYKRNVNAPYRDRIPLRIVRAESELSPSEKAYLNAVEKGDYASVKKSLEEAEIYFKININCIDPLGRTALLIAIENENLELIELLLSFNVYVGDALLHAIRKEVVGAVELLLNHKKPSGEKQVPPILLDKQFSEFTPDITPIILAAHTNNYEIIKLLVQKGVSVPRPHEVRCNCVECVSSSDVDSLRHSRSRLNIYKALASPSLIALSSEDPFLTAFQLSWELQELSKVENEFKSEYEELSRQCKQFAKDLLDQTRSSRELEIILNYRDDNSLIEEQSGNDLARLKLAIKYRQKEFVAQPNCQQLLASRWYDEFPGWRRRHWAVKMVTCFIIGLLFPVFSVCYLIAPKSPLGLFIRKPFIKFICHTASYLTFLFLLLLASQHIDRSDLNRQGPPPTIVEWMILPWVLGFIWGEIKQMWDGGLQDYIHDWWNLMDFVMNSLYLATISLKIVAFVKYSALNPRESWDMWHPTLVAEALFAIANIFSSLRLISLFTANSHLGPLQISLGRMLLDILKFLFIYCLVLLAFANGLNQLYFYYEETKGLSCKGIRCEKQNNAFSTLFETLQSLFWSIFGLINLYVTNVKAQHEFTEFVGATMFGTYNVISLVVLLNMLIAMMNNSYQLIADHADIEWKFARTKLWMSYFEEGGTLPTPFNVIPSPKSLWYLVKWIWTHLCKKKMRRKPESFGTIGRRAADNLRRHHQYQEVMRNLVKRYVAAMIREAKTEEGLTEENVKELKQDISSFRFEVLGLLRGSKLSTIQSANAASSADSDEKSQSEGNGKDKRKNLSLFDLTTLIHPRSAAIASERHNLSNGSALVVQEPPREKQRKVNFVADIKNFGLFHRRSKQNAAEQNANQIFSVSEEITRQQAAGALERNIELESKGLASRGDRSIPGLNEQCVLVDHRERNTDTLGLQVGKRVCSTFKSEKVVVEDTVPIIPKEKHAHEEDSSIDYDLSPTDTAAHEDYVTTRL
Active and inactive are the calls of the source.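 Rule for the calls: active = calcium signal ratio cut to more than 3 SD under the fully stimulated control mean yet still positive, in both repeats and the primary screen; inactive = the rest.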
Outcomes: 1 (yes) for active, 0 (no) for inactive

>  <Molecule>
CCOc1c(Cl)cc(CNC(C)C(O)c2ccccc2)cc1OC (stereo not given)

>  <Qualitative label>
0 (no)

$$$$
>  <Molecule>
CN1CCN(Cc2cc(=O)n3ccsc3n2)CC1

>  <Qualitative label>
0 (no)

$$$$
>  <Molecule>
Clc1ccc(N2CCNCC2)nn1

>  <Qualitative label>
0 (no)

$$$$
>  <Molecule>
Cc1cc(OC(C)C(=O)NCc2ccncc2)c2c3c(c(=O)oc2c1)CCCC3 (stereo not given)

>  <Qualitative label>
0 (no)

$$$$
>  <Molecule>
CNCCc1nc(N)n[nH]1

>  <Qualitative label>
0 (no)

$$$$
>  <Molecule>
COc1cc(C)c(CNCCc2c[nH]c3ccccc23)cc1C

>  <Qualitative label>
0 (no)

$$$$
>  <Molecule>
CCCCN1C(=O)NC(=O)C2(Cc3c(nc4c(C)cccn4c3=O)N3CCc4ccccc4C32)C1=O (stereo not given)

>  <Qualitative label>
0 (no)

$$$$
>  <Molecule>
COc1ccc(CCNCc2ccc(SC)cc2)cc1

>  <Qualitative label>
0 (no)

$$$$
>  <Molecule>
COc1ccc(OC)c(CN2CCCC(C(=O)c3sccc3C)C2)c1 (stereo not given)

>  <Qualitative label>
1 (yes)

$$$$
>  <Molecule>
CC[C@@H](CO)NC(=O)[C@@H]1C=C2c3cccc4c3c(cn4C)C[C@H]2N(C)C1

>  <Qualitative label>
0 (no)

$$$$

====

test system: transient receptor potential cation channel C4 beta (TRPC4), mouse; experiment: activators of mouse TRPC4 channel, confirmation, cell-based, second round, Fluo4, HEK293 TRPC4beta/mu-opioid, 1 µM (AID 2461); conditions: Fluo4 calcium fluorescence, at 1 µM
Calls of active or inactive are those of the source.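 How the source made its calls: active means primary screen active and over 50% activation in each of two duplicate runs; inactive means the rest.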
Outcomes: active, inactive

>  <Compound>
O=[N+]([O-])c1ccc(N2CCNCC2)cc1NC1CC1

>  <Target of assay>
transient receptor potential cation channel C4 beta (TRPC4), mouse

>  <Qualitative label>
active

$$$$
>  <Compound>
CC(=O)OC1(c2ccccc2)CCN(C2CCCCC2)CC1C (configuration not stated)

>  <Target of assay>
transient receptor potential cation channel C4 beta (TRPC4), mouse

>  <Qualitative label>
inactive

$$$$
>  <Compound>
Cc1ccc(-c2cc(-c3ccccc3)cc(-c3ccccc3)[n+]2-c2ccccc2)cc1

>  <Target of assay>
transient receptor potential cation channel C4 beta (TRPC4), mouse

>  <Qualitative label>
inactive

$$$$
>  <Compound>
COc1ccc2c(c1O)C13CCN(C)C(C2)C1CCC(=O)C3 (configuration not stated)

>  <Target of assay>
transient receptor potential cation channel C4 beta (TRPC4), mouse

>  <Qualitative label>
active

$$$$
>  <Compound>
COc1ccc(C)cc1NC1=NC(C)(C)CS1

>  <Target of assay>
transient receptor potential cation channel C4 beta (TRPC4), mouse

>  <Qualitative label>
inactive

$$$$
>  <Compound>
Cc1ccccc1C(O)(Cc1ccccc1)C1CN2CCC1CC2 (configuration not stated)

>  <Target of assay>
transient receptor potential cation channel C4 beta (TRPC4), mouse

>  <Qualitative label>
inactive

$$$$
>  <Compound>
N=c1c[n+](CC23CC4CC(CC(C4)C2)C3)[n-]o1

>  <Target of assay>
transient receptor potential cation channel C4 beta (TRPC4), mouse

>  <Qualitative label>
active

$$$$
>  <Compound>
O=[N+]([O-])c1ccc(N2CCNCC2)c2ncccc12

>  <Target of assay>
transient receptor potential cation channel C4 beta (TRPC4), mouse

>  <Qualitative label>
active

$$$$
>  <Compound>
Cc1cccc(N2CCc3c2nc2ccccc2c3N)c1

>  <Target of assay>
transient receptor potential cation channel C4 beta (TRPC4), mouse

>  <Qualitative label>
inactive

$$$$
>  <Compound>
COC(=O)C1=C(c2cc3ccccc3s2)C[C@@H]2CC[C@H]1N2C(=O)NCCO

>  <Target of assay>
transient receptor potential cation channel C4 beta (TRPC4), mouse

>  <Qualitative label>
inactive

$$$$
>  <Compound>
O=[N+]([O-])c1ccc(N2CCNCC2)c(Cl)c1

>  <Target of assay>
transient receptor potential cation channel C4 beta (TRPC4), mouse

>  <Qualitative label>
inactive

$$$$
>  <Compound>
CCOC(=O)C(O)(c1ccc(NC(=S)NC(=O)c2ccc(Cl)cc2Cl)c(C)c1)C(F)(F)F (configuration not stated)

>  <Target of assay>
transient receptor potential cation channel C4 beta (TRPC4), mouse

>  <Qualitative label>
inactive

$$$$
>  <Compound>
Cc1cc(-c2ccccc2)cc(C)[n+]1Cc1ccccc1

>  <Target of assay>
transient receptor potential cation channel C4 beta (TRPC4), mouse

>  <Qualitative label>
inactive

$$$$
>  <Compound>
COc1cc2c3cc1Oc1cc(ccc1O)C[C@@H]1c4c(cc(OC)c(O)c4Oc4ccc(cc4)C[C@H]3N(C)CC2)CCN1C

>  <Target of assay>
transient receptor potential cation channel C4 beta (TRPC4), mouse

>  <Qualitative label>
inactive

$$$$
>  <Compound>
COc1ccc(OC)c(CN2CCCC(C(=O)c3sccc3C)C2)c1 (configuration not stated)

>  <Target of assay>
transient receptor potential cation channel C4 beta (TRPC4), mouse

>  <Qualitative label>
inactive

$$$$
>  <Compound>
COc1ccc(CNCCc2c[nH]c3ccccc23)c(OC)c1C

>  <Target of assay>
transient receptor potential cation channel C4 beta (TRPC4), mouse

>  <Qualitative label>
inactive

$$$$
>  <Compound>
COC(=O)C(O)(c1ccc(NC(=S)NC(=O)c2ccc(Cl)cc2Cl)c(C)c1)C(F)(F)F (configuration not stated)

>  <Target of assay>
transient receptor potential cation channel C4 beta (TRPC4), mouse

>  <Qualitative label>
inactive

$$$$
>  <Compound>
CCOC(=O)C1(CCc2ccccc2)CCN(Cc2cccc3c2OCO3)CC1

>  <Target of assay>
transient receptor potential cation channel C4 beta (TRPC4), mouse

>  <Qualitative label>
inactive

$$$$
>  <Compound>
CC(Cc1ccccc1Sc1ccccc1)N(C)C (configuration not stated)

>  <Target of assay>
transient receptor potential cation channel C4 beta (TRPC4), mouse

>  <Qualitative label>
inactive

$$$$
>  <Compound>
CC1CN(c2ccc([N+](=O)[O-])c3cccnc23)CC(C)N1 (configuration not stated)

>  <Target of assay>
transient receptor potential cation channel C4 beta (TRPC4), mouse

>  <Qualitative label>
active

$$$$
>  <Compound>
CN1CCN(Cc2cc(=O)n3ccsc3n2)CC1

>  <Target of assay>
transient receptor potential cation channel C4 beta (TRPC4), mouse

>  <Qualitative label>
inactive

$$$$
>  <Compound>
Cn1c(N2CCNCC2)nc2ccccc21

>  <Target of assay>
transient receptor potential cation channel C4 beta (TRPC4), mouse

>  <Qualitative label>
active

$$$$
